experiment: ATG_PPRE_CIS: Attagene CIS-FACTORIAL HepG2 Assay for human Peroxisome Proliferator-activated Response Element (PPRE) (AID 2282958); conditions: HepG2 PPRE cis-element reporter, Attagene transcription factor profiling; actives raise or lower the signal
Activity calls are given as the source filed them. How the source made its calls: active means hit-call score of the fitted dose curve at least 0.9, where 1 is the maximum; inactive means score below 0.9.
Outcomes: active, inactive

# Compound, Label
rows = [
    ("CC(=O)CC(=O)Nc1ccccc1", "inactive"),
    ("CCCC(=O)OC(C)(C)Cc1ccccc1", "active"),
    ("O=C(O)CCCCCCCCCCCC(=O)O", "inactive"),
    ("CC(C)C(OC(=O)c1ccccc1)C(C)(C)COC(=O)c1ccccc1 (configuration not stated)", "inactive"),
    ("CC1(C)CCC[C@]2(C)[C@H]3CCO[C@]3(C)CC[C@@H]12", "inactive"),
    ("ClC(c1ccccc1)(c1ccccc1)c1ccccc1", "inactive"),
    ("Cc1ccc2c(c1)C(=O)OC2=O", "inactive"),
    ("CC(O)C1CCCCC1 (configuration not stated)", "inactive"),
    ("[O-]n1ccccc1=S.[O-]n1ccccc1=S.[Zn+2]", "inactive"),
    ("Clc1ccc(C(c2ccccc2Cl)C(Cl)Cl)cc1 (configuration not stated)", "active"),
    ("COC(C)(C)CC(C)=O", "inactive"),
    ("O=C1OC(=O)c2c(Cl)c(Cl)c(Cl)c(Cl)c21", "active"),
    ("C#CC(C)N(C)C(=O)Nc1ccc(Cl)cc1 (configuration not stated)", "inactive"),
    ("N[C@@H](Cc1cc(I)c(Oc2cc(I)c(O)c(I)c2)c(I)c1)C(=O)O", "active"),
    ("Nc1ccc(NCCO)c([N+](=O)[O-])c1", "inactive"),
    ("Nc1ccc(N)c2c1C(=O)c1ccccc1C2=O", "active"),
    ("C[Si]1(C)O[Si](C)(C)O[Si](C)(C)O1", "inactive"),
    ("C#CC(C)(O)CC(C)C (configuration not stated)", "inactive"),
    ("CN1C(=O)c2ccccc2C1=O", "inactive"),
    ("COc1ccc(CCO)cc1", "inactive"),
    ("O=C1OC2(c3ccccc31)c1ccc(O)c(Br)c1Oc1c2ccc(O)c1Br", "inactive"),
    ("CCCCC(CC)COC(C)=O (configuration not stated)", "inactive"),
    ("CCCCCC(C)=O", "inactive"),
    ("C=C1C[C@]23C[C@@]1(O)CC[C@H]2[C@@]12C=C[C@H](O)[C@@](C)(C(=O)O1)[C@H]2[C@@H]3C(=O)O", "inactive"),
    ("C[Si](C)(C)O[Si](C)(C)C", "inactive"),
    ("CS(C)=O", "inactive"),
    ("CCCCCC(=O)CC", "inactive"),
    ("CCCCCCCC(=O)OCCCCCC", "inactive"),
    ("CC(C)CCOC(=O)c1ccccc1", "inactive"),
    ("CCCCCc1ccco1", "inactive"),
    ("C=C(C)CNCC", "inactive"),
    ("Cc1ccc(OC(=O)c2ccccc2O)cc1", "inactive"),
    ("O=C1OC[C@H](Cc2cccc(O)c2)[C@H]1Cc1cccc(O)c1", "inactive"),
    ("BrCc1cccc(Oc2ccccc2)c1", "inactive"),
    ("c1ccc2[nH]cnc2c1", "inactive"),
    ("CCCCCCOC(=O)CCC", "inactive"),
    ("Cc1ccc(-c2ccccc2)cc1", "inactive"),
    ("CC=CC=CCOC(=O)C(C)C", "inactive"),
    ("[Cl][Au]([Cl])[Cl]", "inactive"),
    ("CCCCN(CCCC)C(=O)N(CCCC)CCCC", "active"),
    ("CN1CCOCC1", "inactive"),
    ("CC1CCC(C(C)C)C(O)C1 (configuration not stated)", "inactive"),
    ("C=CCN(CC=C)CC=C", "inactive"),
    ("CC(C)(C)C1=CC(=O)C(C(C)(C)C)=CC1=O", "active"),
    ("Nc1ccc2cc(S(=O)(=O)O)cc(O)c2c1N=Nc1ccccc1C(F)(F)F", "inactive"),
    ("OCCCCC(O)CO (configuration not stated)", "inactive"),
    ("CCOc1ccc(NC(=O)CC(C)O)cc1 (configuration not stated)", "inactive"),
    ("Cc1cc(=O)oc2cc(N(C)C)ccc12", "inactive"),
    ("C=C[Si]1(C)O[Si](C)(C=C)O[Si](C)(C=C)O[Si](C)(C=C)O1 (configuration not stated)", "inactive"),
    ("CC(CN=Cc1ccccc1O)N=Cc1ccccc1O (configuration not stated)", "inactive"),
    ("CCOC(=O)CCc1ccccc1", "inactive"),
    ("C[N+](C)(C)CCCCCC[N+](C)(C)C", "inactive"),
    ("CC(=O)c1ccccn1", "inactive"),
    ("CCNCCO", "inactive"),
    ("OC[C@H]1O[C@@H](Oc2ccc(O)cc2)[C@H](O)[C@@H](O)[C@@H]1O", "inactive"),
    ("O=C1CCCC=CCCCCCCCCCC1", "inactive"),
    ("CCCCSCCCC", "inactive"),
]

* * *

read-out: C-C motif chemokine 2 (Homo sapiens) (UniProt P13500); experiment: BSK_KF3CT_MCP1: BioMAP Diversity Plus: KF3CT Assay for Monocyte Chemoattractant Protein 1 (MCP1/CCL2) Biomarker Activity (AID 2283073); settings: primary human keratinocytes with fibroblasts; actives raise or lower the signal
The source made the active and inactive calls. How the source made its calls: active means hit-call score of the fitted dose curve at least 0.9, where 1 is the maximum; inactive means score below 0.9.
Outcomes: active, inactive

# Compound, Label
rows = [
    ("CCCCCC(C=O)=Cc1ccccc1", "active"),
    ("CN(c1nccc(=O)[nH]1)C1CCN(c2nc3ccccc3n2Cc2ccc(F)cc2)CC1", "inactive"),
    ("CC1(C)C2=CCCC(C)(C)[C@]23CC[C@H]1C3", "active"),
    ("COc1ccc(CCN2CCC(Nc3nc4ccccc4n3Cc3ccc(F)cc3)CC2)cc1", "inactive"),
    ("O=C1OC[C@H](Cc2cccc(O)c2)[C@H]1Cc1cccc(O)c1", "inactive"),
    ("Cc1cc(CCC(=O)OCCOCCOCCOC(=O)CCc2cc(C)c(O)c(C(C)(C)C)c2)cc(C(C)(C)C)c1O", "inactive"),
    ("CS(=O)(=O)c1ccc(C2=C(c3ccccc3)C(=O)OC2)cc1", "inactive"),
    ("CC(C)(C)CC(C)(C)c1ccc(OCCOCC[N+](C)(C)Cc2ccccc2)cc1", "active"),
    ("CC(CN=Cc1ccccc1O)N=Cc1ccccc1O (stereo not drawn)", "inactive"),
    ("CCC(C)c1cc([N+](=O)[O-])cc([N+](=O)[O-])c1OC(=O)OC(C)C (stereo not drawn)", "inactive"),
    ("C=C(C)C(=O)OCCOCCOCCOCCOC(=O)C(=C)C", "inactive"),
    ("O=C1OC2(c3ccccc31)c1ccc(O)c(Br)c1Oc1c2ccc(O)c1Br", "active"),
    ("c1ccc(CCc2ccccc2)cc1", "active"),
    ("CCCCN(CCCC)C(=O)N(CCCC)CCCC", "active"),
    ("C=C(C)[C@H]1CC=C(C)C(=O)C1", "inactive"),
    ("CN(C)C(=S)SC(=S)N(C)C", "inactive"),
    ("C1=CC2C3C=CC(C3)C2C1 (stereo not drawn)", "inactive"),
    ("C=C(C)C(=O)OCC(CC)(COC(=O)C(=C)C)COC(=O)C(=C)C", "inactive"),
    ("CS(=O)(=O)OCCCCOS(C)(=O)=O", "inactive"),
    ("C[C@@H]1CCN(C(=O)[C@H](CCCN=C(N)N)NS(=O)(=O)c2cccc3c2NC[C@H](C)C3)[C@@H](C(=O)O)C1", "inactive"),
    ("CC(=O)c1c(C)c([N+](=O)[O-])c(C(C)(C)C)c([N+](=O)[O-])c1C", "inactive"),
    ("CCCCCCCCCCCCCCCC(=O)OC/C=C(C)/C=C/C=C(C)/C=C/C1=C(C)CCCC1(C)C", "inactive"),
    ("Oc1c(Cl)cc(Cl)c(Cl)c1Cc1c(O)c(Cl)cc(Cl)c1Cl", "active"),
]

* * *

assay: CCTE_Shafer_MEA_dev_correlation_coefficient_mean: CCTE's Neural Network Formation Assay for Mean Correlation Coefficient, Shafer Lab (AID 2284093)
Activity calls are given as the source filed them. Rule for the calls: active = hit-call score of the fitted dose curve at least 0.9, where 1 is the maximum; inactive = score below 0.9.

# Compound, outcome
records = [
    ("FC(F)(F)COCC(F)(F)F", "inactive"),
    ("COCCOCCOCCO", "inactive"),
    ("CN(C)CCOC(C)(c1ccccc1)c1ccccn1 (centres undefined)", "inactive"),
    ("CS(=O)(=O)OCCCCOS(C)(=O)=O", "inactive"),
]

* * *

assay: BSK_CASM3C_Proliferation: Cell Proliferation Assessment in the BioMAP Diversity Plus: CASM3C Assay (AID 2283047); conditions: primary human coronary artery smooth muscle cells;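 further: sulforhodamine B total protein stain as relative cell number at 560 nm; sub-confluent cells exposed 48 h before staining; fitted both ways against DMSO so gain or loss of cell number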
The source made the active and inactive calls. How the source made its calls: active means hit-call score of the fitted dose curve at least 0.9, where 1 is the maximum; inactive means score below 0.9.

# Compound, AC50
data = [
    ("COc1ccc(OC)c(N=Nc2c(O)ccc3ccccc23)c1", "33.6 µM (active)"),
    ("CC(C)(N=C=O)c1cccc(C(C)(C)N=C=O)c1", "inactive"),
    ("CC(=O)c1c(C)c([N+](=O)[O-])c(C(C)(C)C)c([N+](=O)[O-])c1C", "inactive"),
    ("O=CN1CCOCC1", "inactive"),
    ("CCCCCC(C=O)=Cc1ccccc1", "30.1 µM (active)"),
    ("C=C(C)C(=O)OCCOCCOCCOCCOC(=O)C(=C)C", "inactive"),
    ("CC(=O)Nc1ccc(C(=O)CCl)cc1", "5.44 µM (active)"),
    ("C=C(C)C(=O)OCCOCCOCCOC(=O)C(=C)C", "inactive"),
    ("CN(c1nccc(=O)[nH]1)C1CCN(c2nc3ccccc3n2Cc2ccc(F)cc2)CC1", "inactive"),
    ("CN(C)C(=S)SC(=S)N(C)C", "19.9 µM (active)"),
    ("CS(=O)(=O)OCCCCOS(C)(=O)=O", "inactive"),
    ("C1=CC2C3C=CC(C3)C2C1 (stereo not given)", "inactive"),
    ("c1ccc(Oc2ccccc2)cc1", "inactive"),
    ("COc1ccc(CCN2CCC(Nc3nc4ccccc4n3Cc3ccc(F)cc3)CC2)cc1", "8.02 µM (active)"),
    ("Cc1cc(CCC(=O)OCCOCCOCCOC(=O)CCc2cc(C)c(O)c(C(C)(C)C)c2)cc(C(C)(C)C)c1O", "inactive"),
    ("CS(=O)(=O)c1ccc(C2=C(c3ccccc3)C(=O)OC2)cc1", "inactive"),
    ("CCCCOC(=O)CCCCCCCC(=O)OCCCC", "inactive"),
    ("C=C(C)C(=O)OCC(CC)(COC(=O)C(=C)C)COC(=O)C(=C)C", "inactive"),
    ("C[C@@H]1CCN(C(=O)[C@H](CCCN=C(N)N)NS(=O)(=O)c2cccc3c2NC[C@H](C)C3)[C@@H](C(=O)O)C1", "inactive"),
    ("c1ccc(CCc2ccccc2)cc1", "inactive"),
    ("CC(=O)C1(C)CC2=C(CCCC2(C)C)CC1C (stereo not given)", "13.2 µM (active)"),
    ("C=C(C)[C@H]1CC=C(C)C(=O)C1", "inactive"),
    ("O=C1OC[C@H](Cc2cccc(O)c2)[C@H]1Cc1cccc(O)c1", "inactive"),
    ("CN(C)C(=O)Nc1ccc(Oc2ccc(Cl)cc2)cc1", "inactive"),
    ("CC(C)(C)CC(C)(C)c1ccc(OCCOCC[N+](C)(C)Cc2ccccc2)cc1", "7.66 µM (active)"),
]

Every entry's value here was drawn from PubChem BioAssay (EPA / NIEHS).
